target: POU1 (OCT1 POU domain);BOB1 (OBF1, OCA-B) (human;human, UniProt P14859;Q16633 260-458;1-256, |); assay: EMSA-SELEX-seq; with BOB1 (ternary complex band); 20 mM Tris-HCl pH 7.6, 140 mM NaCl, 10% glycerol, 0.5 mM EDTA, 0.05% Triton X-100, 0.1 mg/mL BSA, 0.1 mg/mL poly(dI-dC), 5 mM DTT, room temperature, 20 min; high values mean tight binding; details: protein: recombinant;recombinant; copies: 1;1; dsDNA, one strand shown
Sequence (P14859 260-458, chain 1 of 2): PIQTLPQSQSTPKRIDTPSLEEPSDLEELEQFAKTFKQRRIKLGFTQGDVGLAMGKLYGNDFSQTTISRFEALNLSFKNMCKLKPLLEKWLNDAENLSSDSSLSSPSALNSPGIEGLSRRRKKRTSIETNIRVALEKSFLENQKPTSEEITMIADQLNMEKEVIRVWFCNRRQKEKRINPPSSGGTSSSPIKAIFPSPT
Sequence (Q16633 whole entry, chain 2 of 2, the tested form may be a part): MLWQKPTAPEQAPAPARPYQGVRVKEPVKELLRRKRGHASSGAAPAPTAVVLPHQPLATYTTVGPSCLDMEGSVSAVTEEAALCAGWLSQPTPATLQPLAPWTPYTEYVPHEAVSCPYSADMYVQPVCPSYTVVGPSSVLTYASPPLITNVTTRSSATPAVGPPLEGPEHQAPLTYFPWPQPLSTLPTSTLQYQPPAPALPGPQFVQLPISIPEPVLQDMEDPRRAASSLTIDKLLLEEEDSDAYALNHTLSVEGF
measureName: binding signal

Answered examples (8):
AGCCCAAG 0.0129 % of ANNNNAAN 8-mers
ATGTTAAA 0.0956 % of ANNNNAAN 8-mers
ATGCGAAG 0.0523 % of ANNNNAAN 8-mers
ACGCAAAA 0.277 % of ANNNNAAN 8-mers
ATCTAAAA 0.0535 % of ANNNNAAN 8-mers
AGCGTAAT 0.0382 % of ANNNNAAN 8-mers
ATTAAAAC 0.0757 % of ANNNNAAN 8-mers
ACAGTAAA 0.0531 % of ANNNNAAN 8-mers

Query: Please report the recorded binding signal for AAGCGAAG .
Response: 0.0238 % of ANNNNAAN 8-mers

Query: Would you mind telling me what binding signal value was observed for AAAGTAAG ?
Response: 0.0851 % of ANNNNAAN 8-mers
